# measurement notes: Clearance in Sprague-Dawley rat at 2 mg/kg, iv
# Assay type: ADME, organism-based
# Set-up: dose 2 mg/kg, route intravenous
# run parameters: in vivo
experimental readout: clearance (mL/min/kg)
Provide the reading as a plain figure in mL/min/kg.

Lab note: measured clearance of Cc1cc(COc2ccc(C(=O)NC3(CC(=O)NO)CCOCC3)cc2)c2ccccc2n1 was 26.7

---

# measurement notes: Volume of distribution in Beagle dog at 0.5 mg/kg, iv
# Type: ADME, organism-based, Canis lupus familiaris
# Design: dose 0.5 mg/kg, route intravenous
# run parameters: in vivo, read-out: Vdss
experimental readout: Vd
Write your answer as a measured quantity: the number, then the unit.

Vd reading for Cc1cc(COc2ccc(C(=O)NC3(CC(=O)NO)CCNCC3)cc2)c2ccccc2n1 : 0.3 L/kg

---

# measurement notes: Partition coefficient, logP of the compound
# Format: physicochemical
# run parameters: octanol/water
experimental readout: logP
In your answer, state the number alone without any accompanying words.

The cases that follow already have their logP on record.
- chemical structure: "Cc1cc(COc2ccc(C(=O)NC3(CC(=O)NO)CCN(CC(C)(C)C)CC3)cc2)c2ccccc2n1"
  logP: 3.66
- chemical structure: "Cc1cc(COc2ccc(C(=O)NC3(CC(=O)NO)CCN(CCF)CC3)cc2)c2ccccc2n1"
  logP: 2.7
- chemical structure: "Cc1cc(COc2ccc(C(=O)NC3(CC(=O)NO)CCN(C4=NCCS4)CC3)cc2)c2ccccc2n1"
  logP: 2.78
- chemical structure: "Cc1cc(COc2ccc(C(=O)NC3(CC(=O)NO)CCNCC3)cc2)c2ccccc2n1"
  logP: 2.13
- chemical structure: "Cc1cc(COc2ccc(C(=O)NC3(CC(=O)NO)CCCCC3)cc2)c2ccccc2n1"
  logP: 1.62

logP reading for Cc1cc(COc2ccc(C(=O)NC3(CC(=O)NO)CCN(C(C)(C)C)CC3)cc2)c2ccccc2n1 : 1.95

Noted for CCS(=O)(=O)CCN1CCC(CC(=O)NO)(NC(=O)c2ccc(OCc3cc(C)nc4ccccc34)cc2)CC1 : its logP reads 2.48

# compound C#CC(C)(C)N1CCC(CC(=O)NO)(NC(=O)c2ccc(OCc3cc(C)nc4ccccc34)cc2)CC1 ; its logP = 3.43

---

# measurement notes: Cmax in Beagle dog at 1 mg/kg, po
# Assay type: ADME, organism-based, Canis lupus familiaris
# Set-up: dose 1 mg/kg, route oral
# run parameters: in vivo
experimental readout: Cmax (nM)
Give the quantity in nM, number only.

Entry Cc1cc(COc2ccc(C(=O)NC3(CC(=O)NO)CCNCC3)cc2)c2ccccc2n1 ; Cmax = 126

---

# measurement notes: Oral bioavailability in Beagle dog at 1 mg/kg, po
# Assay type: ADME, organism-based, Canis lupus familiaris
# run parameters: in vivo
experimental readout: bioavailability (%)
Return type: number; implicit unit %.

The reported bioavailability of the compound Cc1cc(COc2ccc(C(=O)NC3(CC(=O)NO)CCNCC3)cc2)c2ccccc2n1 was 8

---

# measurement notes: Clearance in Sprague-Dawley rat at 3.3 mg/kg, iv
# Assay type: ADME, organism-based
# Design: dose 3.3 mg/kg, route intravenous
# run parameters: in vivo
experimental readout: clearance (mL/min/kg)
Return type: number; implicit unit mL/min/kg.

Cc1cc(COc2ccc(C(=O)NC3(CC(=O)NO)CCNCC3)cc2)c2ccccc2n1 yielded clearance of 10

---

# measurement notes: Cmax in Beagle dog at 10 mg/kg, po
# Type: ADME, organism-based, Canis lupus familiaris
# Parameters: dose 10 mg/kg, route oral
# run parameters: in vivo
experimental readout: Cmax (µM)
The answer is to be given in µM; state only the numeric part.

Reported Cmax of Cc1cc(COc2ccc(C(=O)NC3(CC(=O)NO)CCOCC3)cc2)c2ccccc2n1 : 4.49

---

# measurement notes: Oral bioavailability in Beagle dog at 10 mg/kg, po
# Format: ADME, organism-based, Canis lupus familiaris
# run parameters: in vivo
experimental readout: bioavailability (%)
Your answer is read as %, so omit the unit and give the number.

Item: Cc1cc(COc2ccc(C(=O)NC3(CC(=O)NO)CCOCC3)cc2)c2ccccc2n1 | bioavailability: 79

---

# measurement notes: Volume of distribution in Beagle dog at 2 mg/kg, iv
# Assay type: ADME, organism-based, Canis lupus familiaris
# Parameters: dose 2 mg/kg, route intravenous
# run parameters: in vivo, read-out: Vdss
experimental readout: Vd (L/kg)
Report only the number, with the unit L/kg understood.

Vd in this record for Cc1cc(COc2ccc(C(=O)NC3(CC(=O)NO)CCOCC3)cc2)c2ccccc2n1 : 2.5

---

# measurement notes: Half life in Sprague-Dawley rat at 3.3 mg/kg, iv
# Assay type: ADME, organism-based
# Set-up: dose 3.3 mg/kg, route intravenous
# run parameters: in vivo
experimental readout: half-life (h)
// note: answer is a bare numeric in h

// recorded half-life for Cc1cc(COc2ccc(C(=O)NC3(CC(=O)NO)CCNCC3)cc2)c2ccccc2n1 : 2.1

Each recorded value in this set is attributed to ChEMBL document CHEMBL1147697.
